target: MurF (UniProt P11880); assay: relative enzymatic activity vs untreated control (fraction); higher = less inhibition; details: 100 µM; incubation time: 2 h at 37 C
Sequence (P11880 whole entry): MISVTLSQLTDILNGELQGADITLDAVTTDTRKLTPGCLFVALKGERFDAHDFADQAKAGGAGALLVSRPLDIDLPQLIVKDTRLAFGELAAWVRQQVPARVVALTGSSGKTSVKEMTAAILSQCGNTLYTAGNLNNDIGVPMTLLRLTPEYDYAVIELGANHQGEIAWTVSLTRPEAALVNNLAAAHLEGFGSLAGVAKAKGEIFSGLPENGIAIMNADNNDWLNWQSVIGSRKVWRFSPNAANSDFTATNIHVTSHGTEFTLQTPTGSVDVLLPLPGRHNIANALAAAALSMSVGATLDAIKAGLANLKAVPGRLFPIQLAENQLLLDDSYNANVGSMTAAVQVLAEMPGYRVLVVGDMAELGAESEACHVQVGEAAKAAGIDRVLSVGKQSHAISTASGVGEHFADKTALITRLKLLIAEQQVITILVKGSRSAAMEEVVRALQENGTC
QUANTITY: relative enzymatic activity
// no unit, no text: just the number

**Query** GET /values?readout=relative enzymatic activity&item= "CN(C)CCC=C1c2ccccc2COc2ccc(CC(=O)O)cc21.Cl"
**Result** 1.1

**Query** GET /values?readout=relative enzymatic activity&item= "O=C1OCCN1N=Cc1ccc([N+](=O)[O-])o1"
**Result** 0.947

**Query** GET /values?readout=relative enzymatic activity&item= "CCOC(=O)CCC(=O)O[C@H]1[C@H](O[C@@H]2[C@@H](C)[C@H](O[C@H]3C[C@@](C)(OC)[C@@H](O)[C@H](C)O3)[C@@H](C)C(=O)O[C@H](CC)[C@@](C)(O)[C@H](O)[C@@H](C)C(=O)[C@H](C)C[C@@]2(C)O)O[C@H](C)C[C@@H]1N(C)C"
**Result** 0.961

**Query** GET /values?readout=relative enzymatic activity&item= CS(=O)(=O)c1ccc(C(O)C(CF)NC(=O)C(Cl)Cl)cc1 (centres undefined)
**Result** 0.945

**Query** GET /values?readout=relative enzymatic activity&item= O=C(Cn1cnnn1)NC1C(=O)N2C(C(=O)O)=C(CSc3nncs3)CSC12 (centres undefined)
**Result** 1.01

**Query** GET /values?readout=relative enzymatic activity&item= "Cl.O=C(O)c1cn(-c2ccc(F)cc2)c2cc(N3CCNCC3)c(F)cc2c1=O"
**Result** 0.919

**Query** GET /values?readout=relative enzymatic activity&item= "NC[C@H]1O[C@H](O[C@H]2[C@H](O)[C@@H](O[C@H]3O[C@H](CO)[C@@H](O)[C@H](N)[C@H]3O)[C@H](N)C[C@@H]2N)[C@H](N)C[C@@H]1O"
**Result** 0.956

**Query** GET /values?readout=relative enzymatic activity&item= COc1c(N2CCNC(C)C2)c(F)cc2c(=O)c(C(=O)O)cn(C3CC3)c12 (centres undefined)
**Result** 0.942

**Query** GET /values?readout=relative enzymatic activity&item= "CCCCCCCCCCCCCCCC[N+](C)(C)C"
**Result** 0.106
